Biological target: T1, human neonatal Fc receptor (hFcRn) (human, UniProt P55899 24-290; P61769 21-119)
T1 construct: Biotinylated in the ELISA, Octet and yeast assays; also called human FcRn; huFcRn
T1 sequence (P55899 24-290 limits assumed, chain 1 of 2): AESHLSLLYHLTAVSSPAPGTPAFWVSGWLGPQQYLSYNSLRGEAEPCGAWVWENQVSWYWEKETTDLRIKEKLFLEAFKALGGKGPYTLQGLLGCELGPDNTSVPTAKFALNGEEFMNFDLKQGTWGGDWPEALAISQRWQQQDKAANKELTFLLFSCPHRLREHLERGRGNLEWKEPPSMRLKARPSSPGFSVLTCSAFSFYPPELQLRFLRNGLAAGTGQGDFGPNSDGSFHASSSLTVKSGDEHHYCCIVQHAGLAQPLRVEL
T1 sequence (P61769 21-119 limits assumed, chain 2 of 2): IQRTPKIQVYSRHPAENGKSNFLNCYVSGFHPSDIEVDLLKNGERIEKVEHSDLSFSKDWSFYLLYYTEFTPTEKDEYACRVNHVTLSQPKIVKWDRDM
Experiment: phage ELISA pH 7.4;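 note: higher score means stronger binding and above about 3 to 5 exceeds background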
Assay Metric: ELISA score
Provide a numeric answer; units are not to be included.

Binder	Assay Metric	Meas Value
L6A isolate with insertion SEQ ID NO: 474 (other) EPKSCDKTHTCPPCPAPELLGGPSVFLFPPKPKDTLMISRTPEVTCVVVDVSHEDPEVKFNWYVDGVEVHNAKTKPREEQYNSTYRVVSVLTVLHQDWLNGKEYKCKVSNKALPAPIEKTISKAKGQPREPQVYTLPPSRDELGGCAKDQHTGSCGGTKNQVSLTCLVKGFYPSDIAVEWESNGQPENNYKTTPPVLDSDGSFFLYSKLTVDKSRWQQGNVFSCSVMHEALHNHYTQKSLSLSPGK	ELISA score	0.2
L5 isolate with insertion SEQ ID NO: 470 (other) EPKSCDKTHTCPPCPAPELLGGPSVFLFPPKPKDTLMISRTPEVTCVVVDVSHEDPEVKFNWYVDGVEVHNAKTKPREEQYNSTYRVVSVLTVLHQDWLNGKEYKCKVSNKALPAPIEKTISKAKGQPREPQVYTLPPSRDELTKNQVSLTCLVKGFYPSDIAVEWESNGGCEASGQICGGGQPENNYKTTPPVLDSDGSFFLYSKLTVDKSRWQQGNVFSCSVMHEALHNHYTQKSLSLSPGK	ELISA score	1.6
L5 isolate with insertion SEQ ID NO: 496 (other) EPKSCDKTHTCPPCPAPELLGGPSVFLFPPKPKDTLMISRTPEVTCVVVDVSHEDPEVKFNWYVDGVEVHNAKTKPREEQYNSTYRVVSVLTVLHQDWLNGKEYKCKVSNKALPAPIEKTISKAKGQPREPQVYTLPPSRDELTKNQVSLTCLVKGFYPSDIAVEWESNGGCGGPYVFCGGGQPENNYKTTPPVLDSDGSFFLYSKLTVDKSRWQQGNVFSCSVMHEALHNHYTQKSLSLSPGK	ELISA score	1.4
variant Fc-fragment Fc-5-112 (other, soluble elsewhere) EPKSCDKTHTCPPCPAPELLGGPSVFLFPPKPKDTLMISRTPEVTCVVVDVSHEDPEVKFNWYVDGVEVHNAKTKPREEQYNSTYRVVSVLTVLHQDWLNGKEYKCKVSNKALPAPIEKTISKAKGQPREPQVYTLPPSRDELTKNQVSLTCLVKGFYPSDIAVEWESNGGCALYPTNCGGGQPENNYKTTPPVLDSDGSFFLYSKLTVDKSRWQQGNVFSCSVMHEALHNHYTQKSLSLSPGK	ELISA score	0.4
L6B isolate with insertion SEQ ID NO: 473 (other) EPKSCDKTHTCPPCPAPELLGGPSVFLFPPKPKDTLMISRTPEVTCVVVDVSHEDPEVKFNWYVDGVEVHNAKTKPREEQYNSTYRVVSVLTVLHQDWLNGKEYKCKVSNKALPAPIEKTISKAKGQPREPQVYTLPPSRDELGGCSFSRHMGACGGTKNQVSLTCLVKGFYPSDIAVEWESNGQPENNYKTTPPVLDSDGSFFLYSKLTVDKSRWQQGNVFSCSVMHEALHNHYTQKSLSLSPGK	ELISA score	0.3

We next turn to a different binder, shown below.
[ask] Consider the binder shown here: L6A isolate with insertion SEQ ID NO: 458 (other) EPKSCDKTHTCPPCPAPELLGGPSVFLFPPKPKDTLMISRTPEVTCVVVDVSHEDPEVKFNWYVDGVEVHNAKTKPREEQYNSTYRVVSVLTVLHQDWLNGKEYKCKVSNKALPAPIEKTISKAKGQPREPQVYTLPPSRDELGGCNPVSTGAYCGGTKNQVSLTCLVKGFYPSDIAVEWESNGQPENNYKTTPPVLDSDGSFFLYSKLTVDKSRWQQGNVFSCSVMHEALHNHYTQKSLSLSPGK What is its recorded ELISA score?
[reply] 0.2
